Listed here: items and their measured inhibition at 10 µM.
System: MALME-3M
Assay: NCI 60 antitumor screening (single dose / five doses)
Format: cell-based
Conditions: Homo sapiens; MALME-3M (melanoma), single dose 10 μM; read-out: Growth inhibition percentage (GI %)
measured_parameter: inhibition at 10 µM (%)

[[record]]
molecule = "Fc1cccc(/C=N/Nc2nc(N/N=C/c3cccc(F)c3)nc(N3CCOCC3)n2)c1 [compound 6e]"
measured_parameter = "inhibition at 10 µM"
measured = -44

[[record]]
molecule = "Fc1cccc(/C=N/Nc2nc(N/N=C/c3cccc(F)c3)nc(N3CCCCC3)n2)c1 [compound 7e]"
measured_parameter = "inhibition at 10 µM"
measured = -0.5

[[record]]
molecule = "Oc1ccccc1/C=N/Nc1nc(N/N=C/c2ccccc2O)nc(N2CCOCC2)n1 [compound 6a]"
measured_parameter = "inhibition at 10 µM"
measured = 47.4

[[record]]
molecule = "Oc1ccc(/C=N/Nc2nc(N/N=C/c3ccc(O)c(O)c3)nc(N3CCCCC3)n2)cc1O [compound 7j]"
measured_parameter = "inhibition at 10 µM"
measured = 6.88

[[record]]
molecule = "Oc1ccc(/C=N/Nc2nc(N/N=C/c3ccc(O)c(O)c3)nc(N3CCOCC3)n2)cc1O [compound 6j]"
measured_parameter = "inhibition at 10 µM"
measured = -4.04

[[record]]
molecule = "O=C1Nc2ccc(Cl)cc2/C1=N\\Nc1nc(N/N=C2/C(=O)Nc3ccc(Cl)cc32)nc(N2CCOCC2)n1 [compound 8b]"
measured_parameter = "inhibition at 10 µM"
measured = 43.6

[[record]]
molecule = "Brc1cccc(/C=N/Nc2nc(N/N=C/c3cccc(Br)c3)nc(N3CCCCC3)n2)c1 [compound 7c]"
measured_parameter = "inhibition at 10 µM"
measured = 15.1

[[record]]
molecule = "Fc1cccc(Cl)c1/C=N/Nc1nc(N/N=C/c2c(F)cccc2Cl)nc(N2CCOCC2)n1 [compound 6l]"
measured_parameter = "inhibition at 10 µM"
measured = 16

[[record]]
molecule = "Brc1ccccc1/C=N/Nc1nc(N/N=C/c2ccccc2Br)nc(N2CCOCC2)n1 [compound 6b]"
measured_parameter = "inhibition at 10 µM"
measured = -42.9

[[record]]
molecule = "COC(=O)C(Cc1ccccc1)Nc1nc(NC(Cc2ccccc2)C(=O)OC)nc(N2CCOCC2)n1 (centres unmarked) [compound 8c]"
measured_parameter = "inhibition at 10 µM"
measured = -4.87

[[record]]
molecule = "Clc1cccc(/C=N/Nc2nc(N/N=C/c3cccc(Cl)c3Cl)nc(N3CCCCC3)n2)c1Cl [compound 7h]"
measured_parameter = "inhibition at 10 µM"
measured = 7.49

[[record]]
molecule = "C(=N\\Nc1nc(N/N=C/c2ccc3c(c2)OCO3)nc(N2CCCCC2)n1)/c1ccc2c(c1)OCO2 [compound 7k]"
measured_parameter = "inhibition at 10 µM"
measured = -20.2

[[record]]
molecule = "Clc1cccc(/C=N/Nc2nc(N/N=C/c3cccc(Cl)c3Cl)nc(N3CCOCC3)n2)c1Cl [compound 6h]"
measured_parameter = "inhibition at 10 µM"
measured = 2.72

[[record]]
molecule = "C(=N\\Nc1nc(N/N=C/c2ccc3c(c2)OCO3)nc(N2CCOCC2)n1)/c1ccc2c(c1)OCO2 [compound 6k]"
measured_parameter = "inhibition at 10 µM"
measured = -3.77

[[record]]
molecule = "Fc1cccc(Cl)c1/C=N/Nc1nc(N/N=C/c2c(F)cccc2Cl)nc(N2CCCCC2)n1 [compound 7l]"
measured_parameter = "inhibition at 10 µM"
measured = 95.8

[[record]]
molecule = "Clc1cccc(/C=N/Nc2nc(N/N=C/c3cccc(Cl)c3)nc(N3CCCCC3)n2)c1 [compound 7d]"
measured_parameter = "inhibition at 10 µM"
measured = -9.06

[[record]]
molecule = "Clc1cccc(/C=N/Nc2nc(N/N=C/c3cccc(Cl)c3)nc(N3CCOCC3)n2)c1 [compound 6d]"
measured_parameter = "inhibition at 10 µM"
measured = 144

[[record]]
molecule = "CN(C)c1ccc(/C=N/Nc2nc(N/N=C/c3ccc(N(C)C)cc3)nc(N3CCCCC3)n2)cc1 [compound 7g]"
measured_parameter = "inhibition at 10 µM"
measured = 167

[[record]]
molecule = "O=C(NNc1nc(NNC(=O)c2ccccc2)nc(N2CCOCC2)n1)c1ccccc1 [compound 8d]"
measured_parameter = "inhibition at 10 µM"
measured = -7.11

[[record]]
molecule = "Brc1ccccc1/C=N/Nc1nc(N/N=C/c2ccccc2Br)nc(N2CCCCC2)n1 [compound 7b]"
measured_parameter = "inhibition at 10 µM"
measured = -6.25

[[record]]
molecule = "Brc1cccc(/C=N/Nc2nc(N/N=C/c3cccc(Br)c3)nc(N3CCOCC3)n2)c1 [compound 6c]"
measured_parameter = "inhibition at 10 µM"
measured = 154

[[record]]
molecule = "CN(C)c1ccc(/C=N/Nc2nc(N/N=C/c3ccc(N(C)C)cc3)nc(N3CCOCC3)n2)cc1 [compound 6g]"
measured_parameter = "inhibition at 10 µM"
measured = -14.2

[[record]]
molecule = "Oc1ccccc1/C=N/Nc1nc(N/N=C/c2ccccc2O)nc(N2CCCCC2)n1 [compound 7a]"
measured_parameter = "inhibition at 10 µM"
measured = 33.1


----------
Test system: OVCAR-3
Experiment: NCI 60 antitumor screening (single dose)
Type: cell-based
Conditions: Homo sapiens; OVCAR-3 (ovarian cancer), single dose 10 μM; read-out: Growth inhibition percentage (GI %)
Listed here: items and their measured inhibition at 10 µM.
measured_parameter: inhibition at 10 µM (%)

[[record]]
compound_smiles = "Oc1ccc(/C=N/Nc2nc(N/N=C/c3ccc(O)c(O)c3)nc(N3CCOCC3)n2)cc1O"
measured_parameter = "inhibition at 10 µM"
unit_label = "%"
measured = -4.79

[[record]]
compound_smiles = "O=C(NNc1nc(NNC(=O)c2ccccc2)nc(N2CCOCC2)n1)c1ccccc1"
measured_parameter = "inhibition at 10 µM"
unit_label = "%"
measured = -5.45

[[record]]
compound_smiles = "Clc1cccc(/C=N/Nc2nc(N/N=C/c3cccc(Cl)c3)nc(N3CCOCC3)n2)c1"
measured_parameter = "inhibition at 10 µM"
unit_label = "%"
measured = 43.7

[[record]]
compound_smiles = "Oc1ccc(/C=N/Nc2nc(N/N=C/c3ccc(O)c(O)c3)nc(N3CCCCC3)n2)cc1O"
measured_parameter = "inhibition at 10 µM"
unit_label = "%"
measured = 5.01


----------
Listed here: items and their measured GI50.
System: ACHN
Experiment: NCI 60 antitumor screening (single dose / five doses)
Format: cell-based
Settings: Homo sapiens; ACHN, five doses (0.01–100 μM); read-out: GI50
measured_parameter: GI50 (µM)

[[record]]
compound_smiles = "Oc1ccccc1/C=N/Nc1nc(N/N=C/c2ccccc2O)nc(N2CCOCC2)n1"
measured_parameter = "GI50"
measured = 1.58

[[record]]
compound_smiles = "Clc1cccc(/C=N/Nc2nc(N/N=C/c3cccc(Cl)c3)nc(N3CCOCC3)n2)c1"
measured_parameter = "GI50"
measured = 2.11

[[record]]
compound_smiles = "CN(C)c1ccc(/C=N/Nc2nc(N/N=C/c3ccc(N(C)C)cc3)nc(N3CCCCC3)n2)cc1"
measured_parameter = "GI50"
measured = 2.68

[[record]]
compound_smiles = "Brc1cccc(/C=N/Nc2nc(N/N=C/c3cccc(Br)c3)nc(N3CCOCC3)n2)c1"
measured_parameter = "GI50"
measured = 2.21

[[record]]
compound_smiles = "Fc1cccc(Cl)c1/C=N/Nc1nc(N/N=C/c2c(F)cccc2Cl)nc(N2CCCCC2)n1"
measured_parameter = "GI50"
measured = 3.04


----------
Listed here: items and their measured inhibition at 10 µM.
Tested on: SF-268
Assay: NCI 60 antitumor screening (single dose)
Type: cell-based
Settings: Homo sapiens; SF-268 (CNS cancer), single dose 10 μM; read-out: Growth inhibition percentage (GI %)
measured_parameter: inhibition at 10 µM (%)

[[record]]
compound = "O=C1Nc2ccc(Cl)cc2/C1=N\\Nc1nc(N/N=C2/C(=O)Nc3ccc(Cl)cc32)nc(N2CCOCC2)n1"
measured_parameter = "inhibition at 10 µM"
unit_label = "%"
measured = 50.9

[[record]]
compound = "COC(=O)C(Cc1ccccc1)Nc1nc(NC(Cc2ccccc2)C(=O)OC)nc(N2CCOCC2)n1 (centres unmarked)"
measured_parameter = "inhibition at 10 µM"
unit_label = "%"
measured = -2.56

[[record]]
compound = "C(=N\\Nc1nc(N/N=C/c2ccc3c(c2)OCO3)nc(N2CCOCC2)n1)/c1ccc2c(c1)OCO2"
measured_parameter = "inhibition at 10 µM"
unit_label = "%"
measured = 8.94

[[record]]
compound = "Clc1cccc(/C=N/Nc2nc(N/N=C/c3cccc(Cl)c3)nc(N3CCOCC3)n2)c1"
measured_parameter = "inhibition at 10 µM"
unit_label = "%"
measured = 34.1

[[record]]
compound = "Fc1cccc(/C=N/Nc2nc(N/N=C/c3cccc(F)c3)nc(N3CCOCC3)n2)c1"
measured_parameter = "inhibition at 10 µM"
unit_label = "%"
measured = 4.91

[[record]]
compound = "Oc1ccc(/C=N/Nc2nc(N/N=C/c3ccc(O)c(O)c3)nc(N3CCCCC3)n2)cc1O"
measured_parameter = "inhibition at 10 µM"
unit_label = "%"
measured = -2.56

[[record]]
compound = "Brc1ccccc1/C=N/Nc1nc(N/N=C/c2ccccc2Br)nc(N2CCCCC2)n1"
measured_parameter = "inhibition at 10 µM"
unit_label = "%"
measured = -1.64

[[record]]
compound = "Oc1ccccc1/C=N/Nc1nc(N/N=C/c2ccccc2O)nc(N2CCOCC2)n1"
measured_parameter = "inhibition at 10 µM"
unit_label = "%"
measured = 27.7

